- system: Bromodomain adjacent to zinc finger domain protein 2B (Homo sapiens)
- test-method-notes: qHTS Assay for Inhibitors of BAZ2B; note: nearly all actives have a fitted effect of over 60% in size
- assay-context: AlphaScreen BAZ2B-H3K14Ac peptide displacement; series mostly up to 114 µM
About 16,000 (4.4%) of roughly 360,000 compounds were called active. Inconclusive results (about 9%) are left out. Calls come from the whole dose curve; as a rule, active = well fitted inhibition curve with a large enough effect; inconclusive = small, poorly fitted or top-dose-only effect; inactive = no such curve, though single readings can be large or run the other way. The sample as a whole holds a higher share of actives than the screen did.
Possible outcomes: T for active, F for inactive

INSERT INTO measurements (molecule, category) VALUES
  ('COc1ccc(CNC(=O)CCN2C(=O)c3ccccc3C2=O)cc1', 'F'),
  ('CCOC(=O)C1CCCN(C(=O)Cn2ncc3c(C)n(Cc4ccc(F)cc4)c(C)c3c2=O)C1 (stereo not drawn)', 'F'),
  ('COc1ccc(OC)c(CCNC(=O)c2nn(C)c3c2CS(=O)(=O)c2ccccc2-3)c1', 'F'),
  ('CCC(=O)N1c2ccccc2CC1C(=O)N1CCN(c2cccc(OC)c2)CC1 (stereo not drawn)', 'F'),
  ('O=C1CSC(=S)N1/N=C/c1ccc(O)c([N+](=O)[O-])c1', 'T'),
  ('CCN1/C(=C\c2ccc3ccccc3[n+]2CC)Sc2cc(C)ccc21', 'T'),
  ('CSc1ncc(C(=O)NCc2ccccc2Cl)c(C(F)(F)F)n1', 'F'),
  ('COc1ccc(CCC(=O)NCCc2csc(-c3ccc(Cl)cc3)n2)cc1', 'F'),
  ('OCCN1CCN(C(=S)c2ccc(-c3ccccc3)cc2)CC1', 'F'),
  ('CCc1ccccc1N1C(=O)CN(S(=O)(=O)CC)CC1(C)C(=O)NC1CCCCC1 (stereo not drawn)', 'F'),
  ('CCOc1cc(/C=C2\SC(N3CCCCC3)=NC2=O)ccc1O', 'F'),
  ('Cc1c(CCC(=O)N[C@@H](CC(C)C)C(=O)O)c(=O)oc2c(C)c3oc4c(c3cc12)CCCC4', 'F'),
  ('CC(CCCc1ccccc1)NC(=O)c1nn(-c2ccc(Cl)cc2)nc1CO (stereo not drawn)', 'F'),
  ('Cc1ccc(-c2nn3c(=O)cc(CN4CCN(S(=O)(=O)c5ccc(Cl)cc5)CC4)nc3s2)cc1', 'F'),
  ('Cc1ccccc1-c1nc2cc(NC(=O)c3cccc(OCCC(C)C)c3)ccc2o1', 'F'),
  ('O=c1cc(CSc2ncn[nH]2)[nH]c2ccc(F)cc12', 'F'),
  ('S=C(c1ccccc1)N1CCCC1', 'F'),
  ('CCN1C(=O)/C(=C2\SC(N3CCCCC3)=NC2=O)c2ccccc21', 'T'),
  ('COC(=O)c1ccc(NC(=O)c2cnn(-c3ccc(Cl)cc3)c2C2CCN(C(=O)OC(C)(C)C)CC2)cc1', 'F'),
  ('Cc1nc2c(-c3ccccc3)c(C)nn2c(C)c1CCC(=O)NCCc1ccccc1', 'F'),
  ('Cc1cccc(N2CCN(C3=C(c4ccccc4)C(=O)c4ccccc43)CC2)c1C', 'T'),
  ('CC(=O)n1c(C=Nc2ccccc2)c(O)c2ccccc21', 'F'),
  ('O=C(Nc1cccnc1)c1ccc(Cl)cc1[N+](=O)[O-]', 'F'),
  ('OC(COCc1ccco1)CN1CCN(c2ccccc2)CC1 (stereo not drawn)', 'T'),
  ('COc1ccc(OC)c(-n2nnc(-c3nc(-c4cc(OC)c(OC)c(OC)c4)no3)c2C)c1', 'F'),
  ('COc1ccc(-c2onc(C)c2C)cc1S(=O)(=O)NCC1CCN(Cc2cccc(F)c2)CC1', 'F'),
  ('CCCCOC(=O)/C(C#N)=C/c1ccc(-c2cccc(C(F)(F)F)c2)o1', 'F'),
  ('Cc1c(OC(C)C(=O)N[C@@H](Cc2ccccc2)C(=O)O)ccc2c3c(c(=O)oc12)CCCC3 (stereo partly drawn)', 'F'),
  ('Cc1cccc(C(=O)Nc2ccccc2N2CCN(c3ccc(F)cc3)CC2)c1', 'F'),
  ('CCOC(=O)c1cc2cc3ccccc3cc2oc1=O', 'F'),
  ('CCOC(=O)C1=C(c2ccc(OC)cc2)C(=O)c2ccccc2C1=O', 'T'),
  ('Cc1ccc(C(=O)N2CCc3cc(CNC(=O)c4ccc(Br)cc4)ccc32)cc1', 'F'),
  ('Cc1cc(C)cc(OCC(=O)Nc2nc(-c3ccc(F)cc3)ns2)c1', 'F'),
  ('O=C1N=C(N2CCCC2)S/C1=C\c1cccc(Br)c1', 'F'),
  ('COc1ccc(-c2cc(C(=O)NCc3cc(OC)c(OC)c(OC)c3)[nH]n2)cc1', 'F'),
  ('CCOC(=O)c1ccc(NC(=O)CCn2cnnn2)cc1', 'F'),
  ('S=C(c1ccc(-c2ccccc2)o1)N1CCCCC1', 'T'),
  ('Cc1ccccc1CSc1nc2c([nH]c3ccccc32)c(=O)n1C', 'F');

====

- system: Bromodomain adjacent to zinc finger domain protein 2B (Homo sapiens) (UniProt Q9UIF8)
- Sequence (Q9UIF8 whole entry, looked up, the tested form may be a part): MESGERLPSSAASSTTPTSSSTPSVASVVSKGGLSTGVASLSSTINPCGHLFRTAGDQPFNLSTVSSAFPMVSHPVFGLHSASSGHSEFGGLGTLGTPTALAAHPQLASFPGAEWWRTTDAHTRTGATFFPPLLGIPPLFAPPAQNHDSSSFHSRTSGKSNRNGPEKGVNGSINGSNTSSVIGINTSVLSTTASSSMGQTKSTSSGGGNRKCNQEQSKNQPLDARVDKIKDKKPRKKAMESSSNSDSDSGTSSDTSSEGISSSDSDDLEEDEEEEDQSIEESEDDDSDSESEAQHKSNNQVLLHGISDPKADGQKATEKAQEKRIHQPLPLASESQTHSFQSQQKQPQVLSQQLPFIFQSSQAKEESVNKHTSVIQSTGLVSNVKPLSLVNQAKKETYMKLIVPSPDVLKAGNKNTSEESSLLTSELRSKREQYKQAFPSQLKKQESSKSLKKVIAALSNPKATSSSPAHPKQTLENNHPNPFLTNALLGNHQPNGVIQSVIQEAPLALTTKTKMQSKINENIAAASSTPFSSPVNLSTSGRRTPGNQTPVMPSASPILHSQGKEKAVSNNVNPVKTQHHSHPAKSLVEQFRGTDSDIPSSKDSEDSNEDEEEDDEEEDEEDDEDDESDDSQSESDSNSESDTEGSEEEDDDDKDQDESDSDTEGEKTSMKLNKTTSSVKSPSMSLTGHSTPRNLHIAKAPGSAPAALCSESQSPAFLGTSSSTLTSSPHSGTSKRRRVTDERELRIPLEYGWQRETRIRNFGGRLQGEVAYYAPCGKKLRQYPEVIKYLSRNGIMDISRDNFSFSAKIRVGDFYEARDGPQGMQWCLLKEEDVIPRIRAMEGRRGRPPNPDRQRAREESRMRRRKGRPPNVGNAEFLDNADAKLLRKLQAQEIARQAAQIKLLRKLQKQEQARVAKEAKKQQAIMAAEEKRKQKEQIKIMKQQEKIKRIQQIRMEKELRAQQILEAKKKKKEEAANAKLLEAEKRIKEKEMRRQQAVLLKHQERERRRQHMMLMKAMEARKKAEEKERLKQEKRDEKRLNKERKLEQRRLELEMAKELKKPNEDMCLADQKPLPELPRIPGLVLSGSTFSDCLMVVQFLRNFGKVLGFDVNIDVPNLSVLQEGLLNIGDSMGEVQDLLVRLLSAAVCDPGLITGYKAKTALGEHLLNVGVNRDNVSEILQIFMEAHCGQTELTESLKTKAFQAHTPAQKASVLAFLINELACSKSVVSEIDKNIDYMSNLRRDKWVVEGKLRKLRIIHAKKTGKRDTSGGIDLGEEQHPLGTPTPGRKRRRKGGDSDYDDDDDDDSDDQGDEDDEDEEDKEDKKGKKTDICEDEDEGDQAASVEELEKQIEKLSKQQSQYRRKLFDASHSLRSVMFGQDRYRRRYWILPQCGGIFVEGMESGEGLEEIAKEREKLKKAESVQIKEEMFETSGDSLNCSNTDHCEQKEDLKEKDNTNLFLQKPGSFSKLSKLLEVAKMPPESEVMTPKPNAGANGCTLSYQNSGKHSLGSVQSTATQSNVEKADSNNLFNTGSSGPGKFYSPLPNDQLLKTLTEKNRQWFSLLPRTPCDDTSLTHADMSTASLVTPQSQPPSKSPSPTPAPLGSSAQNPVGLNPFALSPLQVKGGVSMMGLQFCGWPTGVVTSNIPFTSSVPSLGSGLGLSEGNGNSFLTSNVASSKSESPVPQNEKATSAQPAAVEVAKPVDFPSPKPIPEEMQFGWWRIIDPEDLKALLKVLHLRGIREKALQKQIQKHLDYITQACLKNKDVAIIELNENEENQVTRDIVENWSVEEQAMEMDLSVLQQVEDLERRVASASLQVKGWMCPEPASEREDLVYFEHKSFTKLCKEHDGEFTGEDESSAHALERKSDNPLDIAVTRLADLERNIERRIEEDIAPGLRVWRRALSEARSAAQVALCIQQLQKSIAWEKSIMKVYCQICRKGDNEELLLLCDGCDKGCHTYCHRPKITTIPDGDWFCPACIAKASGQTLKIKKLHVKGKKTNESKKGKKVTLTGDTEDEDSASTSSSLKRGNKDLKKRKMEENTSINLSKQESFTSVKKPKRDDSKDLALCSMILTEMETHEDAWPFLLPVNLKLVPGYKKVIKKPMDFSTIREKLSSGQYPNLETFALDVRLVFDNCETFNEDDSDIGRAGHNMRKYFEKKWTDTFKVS
- test-method-notes: qHTS Assay for Inhibitors of BAZ2B; note: nearly all actives have a fitted effect of over 60% in size; note: potency is the fitted concentration of half-maximal effect
- assay-context: AlphaScreen BAZ2B-H3K14Ac peptide displacement; series mostly up to 114 µM
The campaign covered roughly 360,000 compounds. About 16,000 (4.4%) were called active. Inconclusive results (about 9%) are left out. The full list was thinned out, with actives kept by preference.
value-type: Potency

INSERT INTO measurements (compound, value_type, experimental_result) VALUES
  ('Cc1ccc2oc(=O)c3cnn(CC(=O)N4CCN(c5cccc(Cl)c5)CC4)c3c2c1', 'Potency', 'inactive'),
  ('COCCCNCC(=O)Nc1sc(C)c(C)c1C(=O)OC', 'Potency', '50.1 µM (active)'),
  ('COC(=O)c1c(NC(=O)c2c(Cl)cnn2C)sc(C)c1C', 'Potency', 'inactive'),
  ('CCC(=O)Nc1sc(C(=O)Nc2ccccc2)c(C)c1C(=O)OC', 'Potency', 'inactive'),
  ('CCCC(=O)Nc1cc2nn(-c3ccccc3)nc2cc1C', 'Potency', 'inactive'),
  ('NC(=O)CSc1nnc(NC(=O)c2ccc(Br)o2)s1', 'Potency', '56.2 µM (active)'),
  ('Brc1ccc(OCCn2ccnc2)cc1', 'Potency', 'inactive'),
  ('CCCCN1C(=O)/C(=C2/C=CC=CN2C)SC1=S', 'Potency', '44.7 µM (active)'),
  ('C=CCc1cc(C)ccc1OCCCn1ccnc1', 'Potency', '31.6 µM (active)'),
  ('Clc1c(OCCCn2ccnc2)ccc2ccccc12', 'Potency', '39.8 µM (active)'),
  ('COc1ccc(S(=O)(=O)NCc2ccc(C(=O)N(C)Cc3ccco3)cc2)cc1', 'Potency', 'inactive'),
  ('CCCC(=O)Nc1ccc2oc(-c3ccc(O)c(Br)c3)nc2c1', 'Potency', 'inactive'),
  ('O=C1C(Cc2ccc(O)cc2)NC(=S)N1Cc1ccccc1 (stereo unspecified)', 'Potency', 'inactive'),
  ('COc1ccc(N(Cc2ccc(N(C)C)cc2)C(=O)c2ccc(S(C)(=O)=O)cc2)cc1', 'Potency', '39.8 µM (active)'),
  ('CCCCN1C(=O)/C(=C/C=C2/C=Cc3ccccc3N2CC)SC1=S', 'Potency', 'inactive'),
  ('COc1ccc(C(=O)N(Cc2ccc(N(C)C)cc2)C2CCS(=O)(=O)C2)cc1 (stereo unspecified)', 'Potency', 'inactive');

====

- system: Bromodomain adjacent to zinc finger domain protein 2B (Homo sapiens)
- test-method-notes: qHTS Assay for Inhibitors of BAZ2B; note: nearly all actives have a fitted effect of over 60% in size
- assay-context: AlphaScreen BAZ2B-H3K14Ac peptide displacement; series mostly up to 114 µM
Out of some 360,000 compounds screened, about 16,000 (4.4%) were called active. Inconclusive results (about 9%) are left out. Calls come from the whole dose curve; as a rule, active = well fitted inhibition curve with a large enough effect; inconclusive = small, poorly fitted or top-dose-only effect; inactive = no such curve, though single readings can be large or run the other way. Only a selection was taken, and actives are over-represented in it overall.
Possible outcomes: Y (active), N (inactive)

INSERT INTO measurements (compound, category) VALUES
  ('C#CC(CCN1CCCCC1)(OC)c1ccccc1 (stereo not given)', 'N'),
  ('O=C(O)c1ccccc1NC(=O)c1ccccc1-c1ccccc1C(=O)O', 'N'),
  ('c1ccc(-c2ccccc2OCCN2CCCCC2)cc1', 'Y'),
  ('CCc1cccc(-n2nnc(-c3nsc(NC(=O)c4ccc(C)cc4)n3)c2C)c1', 'N'),
  ('CCc1ccccc1NC(=O)CSc1nc(C)c(C(=O)Nc2ccccc2)c(-c2ccc(Cl)cc2)c1C#N', 'N');

====

- system: Bromodomain adjacent to zinc finger domain protein 2B (Homo sapiens)
- test-method-notes: qHTS Assay for Inhibitors of BAZ2B; note: nearly all actives have a fitted effect of over 60% in size
- assay-context: AlphaScreen BAZ2B-H3K14Ac peptide displacement; series mostly up to 114 µM
Out of some 360,000 compounds screened, about 16,000 (4.4%) were called active. Inconclusive results (about 9%) are left out. Calls follow the shape of the dose curve; as a rule, active = well fitted inhibition curve with a large enough effect; inconclusive = small, poorly fitted or top-dose-only effect; inactive = no such curve, though single readings can be large or run the other way. This is one part of a sample in which actives are shown more often than they occur.
Possible outcomes: true for active, false for inactive

INSERT INTO assay_data (molecule, category) VALUES
  ('COc1ccc2c(C)c(CCC(=O)NCc3ccc(OC)c(OC)c3)c(=O)oc2c1', 'false'),
  ('COCCNC(=S)N1CCC(NC(=O)C23CC4CC(CC(C4)C2)C3)CC1', 'false'),
  ('CCOc1ccc(/C=C2\SC(=S)N(NC(=O)c3ccncc3)C2=O)cc1OC', 'false'),
  ('CC(C)(C)C(=O)OCc1nc(-c2ccc(O)c(O)c2)cs1', 'true'),
  ('Cn1cccc1/C=C1\SC(=S)N(NC(=O)c2ccc(Cl)cc2)C1=O', 'true'),
  ('CCN(CC)CCNc1ncnc2c1cnn2-c1cc(Cl)ccc1C', 'false'),
  ('O=C(c1cccc([N+](=O)[O-])c1)N1CCN(Cc2ccccc2)CC1', 'false'),
  ('COc1ccc(CC(=O)N/N=C/c2cc([N+](=O)[O-])cc(Br)c2O)cc1', 'false'),
  ('COC(=O)c1ccc(Cn2c(SCC(=O)N(C)c3ccccc3)nc3ccccc32)cc1', 'false'),
  ('c1ccc2sc(NN=C3CCCC3)nc2c1', 'false'),
  ('CC(C)(C)OC(=O)N1CCC(c2c(C(=O)NCc3ccccn3)cnn2-c2ccc(F)cc2)CC1', 'false'),
  ('Cc1cccc(COc2ccccc2/C=N/Nc2ccc([N+](=O)[O-])cc2)c1', 'false'),
  ('COc1ccc2ccccc2c1/C=N/NC(=O)c1cc(C)[nH]n1', 'false'),
  ('O=c1c2ccccc2ncn1/N=C/c1ccccc1', 'false'),
  ('COc1ccc(SCc2cc(=O)c3ccc(C)c(C)c3[nH]2)cc1', 'false'),
  ('CCCn1c2ccccc2c2cnn(CC(=O)NCCCOC(C)C)c(=O)c21', 'false'),
  ('c1ccc(-c2cc(-c3nnc4sc(-c5ccccn5)nn34)[nH]n2)cc1', 'false'),
  ('CCOC(=O)c1ccc(NC(=O)C2CC(=O)NC(=Nc3ccc(C)c(C)c3)S2)cc1 (configuration not stated)', 'false'),
  ('O=C1CC(c2ccccc2)=NN1c1ccc([N+](=O)[O-])cc1', 'true'),
  ('Clc1cccc(-n2ncc3c(NCCc4ccccc4)ncnc32)c1', 'false'),
  ('CCOC(=O)c1c(C)[nH]c(CCC(=O)NCCCN2CCN(c3cc(C)ccc3C)CC2)c1C', 'false'),
  ('Cc1cccc(NC(=O)N2CCC(CN3CCc4ccccc4C3)CC2)c1C', 'false'),
  ('COc1cc(-c2nn3c(-c4cccc(C)c4)nnc3s2)cc(OC)c1OC', 'false'),
  ('Cc1onc(C(=O)NN)c1-c1csc(COc2ccccc2)n1', 'false'),
  ('CCOc1ccc(-n2c(SCC(=O)NCc3ccccc3)nc3n[nH]c(C)c3c2=N)cc1', 'false'),
  ('Cc1ccc(NS(=O)(=O)c2ccc(N/N=C/c3ccccc3OCC(=O)O)c([N+](=O)[O-])c2)c(C)c1', 'true'),
  ('COc1cccc(NC(=O)CSC2=Nc3ccccc3C3=NC(CC(=O)NC4CCCCC4)C(=O)N23)c1 (configuration not stated)', 'false'),
  ('CCCSc1ncc(Cl)c(C(=O)Nc2sc3c(c2C(=O)NCCOC)CCCC3)n1', 'false'),
  ('Cc1ccc(-n2ncc3c(NCCCn4ccnc4)ncnc32)cc1Cl', 'true'),
  ('CCOc1ccccc1CNC(=O)c1cnc2c(-c3ccc(OCC)c(OCC)c3)c(C)nn2c1C', 'false'),
  ('CN1C(=O)C(CC(N)=O)N(NC(=O)c2ccc(Cl)cc2)C1=S (configuration not stated)', 'false'),
  ('CCCc1nc2ccccc2c(=O)n1/N=C/c1ccc(O)c(O)c1', 'true');

Reference for the values: PubChem BioAssay AID504333
